Test system: Klebsiella oxytoca 1082E
Test: In Vitro Anti-Bacterial Activity Test (MIC, agar dilution)
Assay type: cell-based
Settings: Klebsiella oxytoca 1082E; Muller-Hinton agar, 37° C., 18 hours; read-out: MIC
Structures can show the parent of a compound that is named as a salt.
observable: MIC (ng/mL)
Quick reminder: number only, in ng/mL, skip the unit.

| compound | MIC / ng/mL |
| --- | --- |
| CN[C@H]1CCN(c2c(F)cc3c(=O)c(C(=O)C[N+](=O)[O-])cn(C4CC4)c3c2OC)C1 [Example 65, hydrochloride] | 49 |

Reported MIC, compound CNCC1=CCN(c2c(F)cc3c(=O)c(C(=O)C[N+](=O)[O-])cn(C4CC4)c3c2Cl)C1 [Example 16, hydrochloride] : ____
7

For the compound shown here, CCOC(=O)C(C(=O)OCC)C(=O)c1cn(C2CC2)c2c(OC)c(N3CC[C@H](NC)C3)c(F)cc2c1=O [Example 59, hydrochloride] , give the reported MIC.
7

State the recorded MIC for this entry: CS(=O)(=O)CC(=O)c1cn(C2CC2)c2c(Cl)c(N3CCC(N)C3)c(F)cc2c1=O (stereo not shown) [Example 33, hydrochloride]
391
